targetOrTestSystem: T1, soluble human FcRn (shFcRn) (human, UniProt P55899 24-297; P61769 21-119)
T1 construct: Biotinylated for the ELISA, amine-coupled to a CM5 chip for SPR; also called biotinylated shFcRn
T1 sequence (P55899 24-297 limits assumed, chain 1 of 2): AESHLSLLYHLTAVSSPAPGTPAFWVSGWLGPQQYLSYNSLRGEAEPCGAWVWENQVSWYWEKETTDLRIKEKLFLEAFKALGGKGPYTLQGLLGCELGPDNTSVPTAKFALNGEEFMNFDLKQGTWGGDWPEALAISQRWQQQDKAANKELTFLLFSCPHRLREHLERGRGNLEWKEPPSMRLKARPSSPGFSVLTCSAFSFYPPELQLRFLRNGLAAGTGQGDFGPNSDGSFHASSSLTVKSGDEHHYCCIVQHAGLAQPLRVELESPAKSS
T1 sequence (P61769 21-119 limits assumed, chain 2 of 2): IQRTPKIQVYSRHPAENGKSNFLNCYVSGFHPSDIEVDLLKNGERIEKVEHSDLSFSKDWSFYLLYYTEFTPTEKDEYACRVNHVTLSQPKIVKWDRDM
measurementDescription: IgG competition ELISA
Bridge positions count the residues as written; N and C are the ends. Square brackets hold non-standard residues; d marks the D form. Ends that are not written are not given here. Pen = CC(C)(S)[C@H](N)C(=O)O; Sar = CNCC(=O)O
Measured IC50, listed per entry for reference.

binder	IC50 / µM
QRF[Pen]TGHFGGIYPCNGP-NH2 (disulfide 4-14; N-terminus assumed; SMILES CC[C@H](C)[C@@H]1NC(=O)CNC(=O)CNC(=O)[C@H](Cc2ccccc2)NC(=O)[C@H](Cc2c[nH]cn2)NC(=O)CNC(=O)[C@H]([C@@H](C)O)NC(=O)[C@@H](NC(=O)[C@H](Cc2ccccc2)NC(=O)[C@H](CCCNC(=N)N)NC(=O)[C@@H](N)CCC(N)=O)C(C)(C)SSC[C@@H](C(=O)N[C@@H](CC(N)=O)C(=O)NCC(=O)N2CCC[C@H]2C(N)=O)NC(=O)[C@@H]2CCCN2C(=O)[C@H](Cc2ccc(O)cc2)NC1=O) [Peptide No. 101]	3.4
QRF[Pen]TGHFGGLYPCNGP-NH2 (disulfide 4-14; N-terminus assumed; SMILES CC(C)C[C@@H]1NC(=O)CNC(=O)CNC(=O)[C@H](Cc2ccccc2)NC(=O)[C@H](Cc2c[nH]cn2)NC(=O)CNC(=O)[C@H]([C@@H](C)O)NC(=O)[C@@H](NC(=O)[C@H](Cc2ccccc2)NC(=O)[C@H](CCCNC(=N)N)NC(=O)[C@@H](N)CCC(N)=O)C(C)(C)SSC[C@@H](C(=O)N[C@@H](CC(N)=O)C(=O)NCC(=O)N2CCC[C@H]2C(N)=O)NC(=O)[C@@H]2CCCN2C(=O)[C@H](Cc2ccc(O)cc2)NC1=O) [Peptide No. 32]	2
QRF[Pen]TGHFG[Sar]WYPCNGP-NH2 (disulfide 4-14; N-terminus assumed; SMILES C[C@@H](O)[C@@H]1NC(=O)[C@@H](NC(=O)[C@H](Cc2ccccc2)NC(=O)[C@H](CCCNC(=N)N)NC(=O)[C@@H](N)CCC(N)=O)C(C)(C)SSC[C@@H](C(=O)N[C@@H](CC(N)=O)C(=O)NCC(=O)N2CCC[C@H]2C(N)=O)NC(=O)[C@@H]2CCCN2C(=O)[C@H](Cc2ccc(O)cc2)NC(=O)[C@H](Cc2c[nH]c3ccccc23)NC(=O)CN(C)C(=O)CNC(=O)[C@H](Cc2ccccc2)NC(=O)[C@H](Cc2c[nH]cn2)NC(=O)CNC1=O) [Peptide No. 238]	1
QRF[Pen]TGHFGGFYPCNGP-NH2 (disulfide 4-14; N-terminus assumed; SMILES C[C@@H](O)[C@@H]1NC(=O)[C@@H](NC(=O)[C@H](Cc2ccccc2)NC(=O)[C@H](CCCNC(=N)N)NC(=O)[C@@H](N)CCC(N)=O)C(C)(C)SSC[C@@H](C(=O)N[C@@H](CC(N)=O)C(=O)NCC(=O)N2CCC[C@H]2C(N)=O)NC(=O)[C@@H]2CCCN2C(=O)[C@H](Cc2ccc(O)cc2)NC(=O)[C@H](Cc2ccccc2)NC(=O)CNC(=O)CNC(=O)[C@H](Cc2ccccc2)NC(=O)[C@H](Cc2c[nH]cn2)NC(=O)CNC1=O) [Peptide No. 115]	4.1
RF[Pen]TGHFGGWYPC-NH2 (disulfide 3-13; N-terminus assumed; SMILES C[C@@H](O)[C@@H]1NC(=O)[C@@H](NC(=O)[C@H](Cc2ccccc2)NC(=O)[C@@H](N)CCCNC(=N)N)C(C)(C)SSC[C@@H](C(N)=O)NC(=O)[C@@H]2CCCN2C(=O)[C@H](Cc2ccc(O)cc2)NC(=O)[C@H](Cc2c[nH]c3ccccc23)NC(=O)CNC(=O)CNC(=O)[C@H](Cc2ccccc2)NC(=O)[C@H](Cc2c[nH]cn2)NC(=O)CNC1=O) [Peptide No. 237]	2.8
